- conditions: in acetone, 313.2 K
readout.label: solubility (mole fraction)

Would you mind telling me what solubility (mole fraction) value was observed for `O=c1c(-c2ccc(O)cc2)coc2cc(O[C@@H]3O[C@H](CO)[C@@H](O)[C@H](O)[C@H]3O)cc(O)c12` ?
0.000382

###

- conditions: in isopropanol, 313.2 K
readout.label: solubility (mole fraction)
Give bare numbers.

Would you mind telling me what solubility (mole fraction) value was observed for `O=c1c(-c2ccc(O)cc2)coc2cc(O[C@@H]3O[C@H](CO)[C@@H](O)[C@H](O)[C@H]3O)cc(O)c12` ?
1.71e-05

###

- conditions: in acetone, 303.2 K
readout.label: solubility (mole fraction)
Numbers only.

Would you mind telling me what solubility (mole fraction) value was observed for `O=c1c(-c2ccc(O)cc2)coc2cc(O[C@@H]3O[C@H](CO)[C@@H](O)[C@H](O)[C@H]3O)cc(O)c12` ?
0.000369
